Target Or System: DNA dC->dU-editing enzyme APOBEC-3G (Homo sapiens)
Measurement Notes: qHTS for inhibitors of Vif-A3G interactions: Cherry picks counterscreen;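 also: hits raise yellow fluorescence by blocking Vif-driven A3G-eYFP degradation; nearly all actives have a fitted effect of over 70% in size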; also: potency is read from the fitted curve at half-maximal effect
Experimental Conditions: HeLa A3G-eYFP + Vif, eYFP fluorescence, 24 h
In all, about 2,100 compounds went through this assay and about 1,100 (52%) were called active. Inconclusive results (about 27%) are left out. So high a share suggests a set chosen from earlier hits. Some of the results follow.
Potency overview
Property Measured: Potency

[
  {
    "Molecule": "CNc1cncc(-c2cc(C)c(O)c(C)c2)n1",
    "Property Measured": "Potency",
    "Obs Value": "4.98 µM (active)"
  },
  {
    "Molecule": "CCN(CC)c1ccc(C=NNc2ccc([N+](=O)[O-])cn2)cc1",
    "Property Measured": "Potency",
    "Obs Value": "1.3 µM (active)"
  },
  {
    "Molecule": "Cc1ccc(C(=O)Nc2sc(Cc3ccc4c(c3)OCO4)c(C)c2C(N)=O)cc1",
    "Property Measured": "Potency",
    "Obs Value": "18.4 µM (active)"
  },
  {
    "Molecule": "CCOC(=O)N1CCN(/C=C(\\C#N)c2nc3ccccc3s2)CC1",
    "Property Measured": "Potency",
    "Obs Value": "23.1 µM (active)"
  },
  {
    "Molecule": "Cc1ccc(CNC(=O)C2CC(c3cc(C(F)(F)F)cc(C(F)(F)F)c3)=NO2)o1 (stereo not given)",
    "Property Measured": "Potency",
    "Obs Value": "8.86 µM (active)"
  },
  {
    "Molecule": "COc1ccc(NS(=O)(=O)c2cc(NC(=O)c3ccc(=O)[nH]c3)ccc2N2CCCC2)cc1",
    "Property Measured": "Potency",
    "Obs Value": "5.59 µM (active)"
  },
  {
    "Molecule": "CC(=O)Nc1sc2c(c1-c1nc3ccccc3s1)CCN(C(C)C)C2",
    "Property Measured": "Potency",
    "Obs Value": "18.4 µM (active)"
  },
  {
    "Molecule": "COc1ccc(C(=O)/C=C/Nc2ccc([N+](=O)[O-])cc2C)c(OC)c1",
    "Property Measured": "Potency",
    "Obs Value": "23.1 µM (active)"
  },
  {
    "Molecule": "COc1cc(C2c3cc4c(cc3OC(C)(N3CCCC3)C2C)OCO4)cc(OC)c1OC (stereo not given)",
    "Property Measured": "Potency",
    "Obs Value": "0.994 µM (active)"
  },
  {
    "Molecule": "O=[N+]([O-])c1ccc(N/N=C\\c2cccn2-c2ccccc2)nc1",
    "Property Measured": "Potency",
    "Obs Value": "15.8 µM (active)"
  }
]

----------
Target Or System: DNA dC->dU-editing enzyme APOBEC-3G (Homo sapiens) (UniProt Q9HC16)
Sequence (Q9HC16 whole entry, looked up): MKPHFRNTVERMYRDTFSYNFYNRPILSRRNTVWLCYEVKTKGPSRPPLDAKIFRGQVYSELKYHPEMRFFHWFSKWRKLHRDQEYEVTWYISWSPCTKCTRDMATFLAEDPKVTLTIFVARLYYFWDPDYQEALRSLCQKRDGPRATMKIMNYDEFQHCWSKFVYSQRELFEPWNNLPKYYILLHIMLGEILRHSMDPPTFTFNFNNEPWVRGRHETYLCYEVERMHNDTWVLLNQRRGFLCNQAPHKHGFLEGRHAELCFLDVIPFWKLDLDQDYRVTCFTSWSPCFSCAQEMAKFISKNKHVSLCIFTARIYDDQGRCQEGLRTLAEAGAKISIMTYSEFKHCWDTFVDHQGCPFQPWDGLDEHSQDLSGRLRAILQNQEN
Measurement Notes: qHTS for inhibitors of Vif-A3G interactions: Cherry picks counterscreen;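 also: hits raise yellow fluorescence by blocking Vif-driven A3G-eYFP degradation; nearly all actives have a fitted effect of over 70% in size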;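 as to max response: max response given as percent of control signal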
Experimental Conditions: HeLa A3G-eYFP + Vif, eYFP fluorescence, 24 h
Source text: The recent discovery and characterization of host restriction factors, which provide a potent defense to invading retroviruses, has provided new targets for antiviral drug development. […] In the presence of an inhibitor, it is expected that Vif will be unable to degrade A3G-eYFP and/or A3F-eYFP, resulting in an increase in yellow fluorescence. […]
Out of some 2,100 compounds screened, about 1,100 (52%) were called active. Inconclusive results (about 27%) are left out. The set was probably picked from earlier hits. The list shows a part of the results.
Property Measured: max response

[
  {
    "Molecule": "Fc1cccc(F)c1/C=N/NC(=S)Nc1cccnc1",
    "Target Or System": "DNA dC->dU-editing enzyme APOBEC-3G (Homo sapiens) (UniProt Q9HC16)",
    "Property Measured": "max response",
    "Obs Value": "-2.63% (inactive)"
  },
  {
    "Molecule": "C=CCN1C(=O)c2ccc(C(=O)N(CC(C)C)c3c(N)n(CCCC)c(=O)[nH]c3=O)cc2C1=O",
    "Target Or System": "DNA dC->dU-editing enzyme APOBEC-3G (Homo sapiens) (UniProt Q9HC16)",
    "Property Measured": "max response",
    "Obs Value": "1.27% (inactive)"
  },
  {
    "Molecule": "CN(C)c1ccc(/C=C/C(=O)c2ccc(O)cc2)cc1",
    "Target Or System": "DNA dC->dU-editing enzyme APOBEC-3G (Homo sapiens) (UniProt Q9HC16)",
    "Property Measured": "max response",
    "Obs Value": "57% (inactive)"
  },
  {
    "Molecule": "COc1ccc(/C=C2\\Oc3cc(OC(=O)N4CCOCC4)ccc3C2=O)c(OC)c1",
    "Target Or System": "DNA dC->dU-editing enzyme APOBEC-3G (Homo sapiens) (UniProt Q9HC16)",
    "Property Measured": "max response",
    "Obs Value": "-18.4% (inactive)"
  },
  {
    "Molecule": "Cc1ccc(NC(=S)N=Nc2c(O)n(C)c3ccc(S(=O)(=O)N4CCOCC4)cc23)cc1",
    "Target Or System": "DNA dC->dU-editing enzyme APOBEC-3G (Homo sapiens) (UniProt Q9HC16)",
    "Property Measured": "max response",
    "Obs Value": "0.754% (inactive)"
  },
  {
    "Molecule": "COc1ccc(NC(=O)COC(=O)c2cc(OC)c(OC)cc2NC(=O)c2ccco2)cc1OC",
    "Target Or System": "DNA dC->dU-editing enzyme APOBEC-3G (Homo sapiens) (UniProt Q9HC16)",
    "Property Measured": "max response",
    "Obs Value": "9.25% (inactive)"
  },
  {
    "Molecule": "O=S(=O)(Nc1nc2ccccc2nc1OCC(F)(F)F)c1cccs1",
    "Target Or System": "DNA dC->dU-editing enzyme APOBEC-3G (Homo sapiens) (UniProt Q9HC16)",
    "Property Measured": "max response",
    "Obs Value": "-0.0016% (inactive)"
  },
  {
    "Molecule": "Cc1ccc(CNC(=O)c2cccc3c2C(=O)c2ccc(N4CCC(C)CC4)cc2S3(=O)=O)cc1",
    "Target Or System": "DNA dC->dU-editing enzyme APOBEC-3G (Homo sapiens) (UniProt Q9HC16)",
    "Property Measured": "max response",
    "Obs Value": "-0.215% (inactive)"
  },
  {
    "Molecule": "O=C(COc1ccccc1)NC(=S)Nc1cccc2c(O)cccc12",
    "Target Or System": "DNA dC->dU-editing enzyme APOBEC-3G (Homo sapiens) (UniProt Q9HC16)",
    "Property Measured": "max response",
    "Obs Value": "-0.841% (inactive)"
  },
  {
    "Molecule": "O=C1/C(=C/c2ccc(O)cc2)SC(=S)N1CC1CCCO1 (stereo not given)",
    "Target Or System": "DNA dC->dU-editing enzyme APOBEC-3G (Homo sapiens) (UniProt Q9HC16)",
    "Property Measured": "max response",
    "Obs Value": "-5.85% (inactive)"
  }
]

----------
Target Or System: DNA dC->dU-editing enzyme APOBEC-3G (Homo sapiens)
Measurement Notes: qHTS for inhibitors of Vif-A3G interactions: Cherry picks counterscreen;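 also: hits raise yellow fluorescence by blocking Vif-driven A3G-eYFP degradation; nearly all actives have a fitted effect of over 70% in size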; also: potency is read from the fitted curve at half-maximal effect
Experimental Conditions: HeLa A3G-eYFP + Vif, eYFP fluorescence, 24 h
Among all 2,100 compounds or so, about 1,100 (52%) were called active. Roughly 27% stayed inconclusive and do not appear here. The set was probably picked from earlier hits. Some of the results follow.

[
  {
    "Record Smiles": "CCc1cccc2cc3c(N)c(C(=O)Nc4ccc(S(=O)(=O)N5CCCC5)cc4)sc3nc12",
    "Potency": "5.59 µM (active)"
  },
  {
    "Record Smiles": "Cc1ccc(-c2cn3nc(-c4ccccc4)c(-c4ccccc4)nc3n2)cc1",
    "Potency": "16.4 µM (active)"
  },
  {
    "Record Smiles": "COC(=O)c1cccc(NS(=O)(=O)c2ccc(OC)cc2)c1C",
    "Potency": "7.04 µM (active)"
  },
  {
    "Record Smiles": "Nc1c(C(=O)Nc2ccc(S(=O)(=O)N3CCCC3)cc2)sc2nc3ccc(OC(F)(F)F)cc3cc12",
    "Potency": "18.4 µM (active)"
  }
]

----------
max response overview
Target Or System: DNA dC->dU-editing enzyme APOBEC-3G (Homo sapiens)
Measurement Notes: qHTS for inhibitors of Vif-A3G interactions: Cherry picks counterscreen;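 also: hits raise yellow fluorescence by blocking Vif-driven A3G-eYFP degradation; nearly all actives have a fitted effect of over 70% in size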;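 as to max response: max response given as percent of control signal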
Experimental Conditions: HeLa A3G-eYFP + Vif (tagged APOBEC3G with the HIV-1 protein that degrades it), eYFP fluorescence, 24 h
Hit rate of the full screen: of about 2,100 compounds, about 1,100 (52%) were called active. Inconclusive results (about 27%) are left out. The set was probably picked from earlier hits. The list shows a part of the results.
Property Measured: max response (%)

[
  {
    "Compound": "C=C(C)CNC(=S)N/N=C1\\CCCCc2ccccc21",
    "Readout Unit": "%",
    "Obs Value": -14.6
  },
  {
    "Compound": "CC1Sc2ccc(C(=O)NCc3ccccn3)cc2NC1=O (configuration not stated)",
    "Readout Unit": "%",
    "Obs Value": 3.16
  },
  {
    "Compound": "O=C(Nc1nc(-c2ccccn2)cs1)C1CCCC1",
    "Readout Unit": "%",
    "Obs Value": -16.3
  },
  {
    "Compound": "CC(C)CCNC(=O)c1ccc2c(c1)NC(=O)C(CS(=O)(=O)Cc1cccc(Br)c1)N2 (configuration not stated)",
    "Readout Unit": "%",
    "Obs Value": 2.76
  },
  {
    "Compound": "O=C(CC1CC2CCC1C2)Nc1nc(-c2ccccn2)cs1 (configuration not stated)",
    "Readout Unit": "%",
    "Obs Value": 10.6
  },
  {
    "Compound": "COc1ccc(OC)c(NC(=O)Cn2cnc3onc(-c4ccc(Cl)cc4)c3c2=O)c1",
    "Readout Unit": "%",
    "Obs Value": 9.98
  },
  {
    "Compound": "Cc1cccc(C(=O)Nc2nnc(C3=COCCO3)o2)c1",
    "Readout Unit": "%",
    "Obs Value": -1.82
  }
]
